Target: recombinant human tissue transglutaminase (Homo sapiens, UniProt P21980)
Construct: made in house
Sequence (P21980 1-687): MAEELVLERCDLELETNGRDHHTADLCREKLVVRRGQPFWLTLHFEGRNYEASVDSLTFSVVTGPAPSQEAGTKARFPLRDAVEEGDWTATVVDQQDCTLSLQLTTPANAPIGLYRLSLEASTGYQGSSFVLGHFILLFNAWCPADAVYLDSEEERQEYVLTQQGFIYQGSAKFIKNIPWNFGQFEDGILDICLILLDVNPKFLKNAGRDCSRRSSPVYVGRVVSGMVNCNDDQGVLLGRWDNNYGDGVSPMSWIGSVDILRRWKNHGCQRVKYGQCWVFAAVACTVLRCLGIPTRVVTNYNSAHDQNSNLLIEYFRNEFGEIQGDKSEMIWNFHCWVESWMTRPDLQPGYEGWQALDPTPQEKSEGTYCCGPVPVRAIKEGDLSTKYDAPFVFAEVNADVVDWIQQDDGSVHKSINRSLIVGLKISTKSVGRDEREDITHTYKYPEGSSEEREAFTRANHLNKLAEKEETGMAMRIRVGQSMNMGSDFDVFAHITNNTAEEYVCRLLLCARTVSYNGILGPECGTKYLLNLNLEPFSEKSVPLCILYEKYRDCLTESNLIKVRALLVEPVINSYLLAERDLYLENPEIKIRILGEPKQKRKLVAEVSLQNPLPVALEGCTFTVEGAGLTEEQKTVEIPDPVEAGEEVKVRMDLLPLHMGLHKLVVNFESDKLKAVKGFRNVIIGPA
Test: tTGase inhibition assay, residual activity by glutamate dehydrogenase coupled assay
Format: biochemical
Settings: dihydroisoxazoles, Table 1
Field: kinh. Provide a value for each of the compounds that follow.
Answers are plain numbers, in min⁻¹.

Consider the reported kinh for these compounds:
O=C(NCC1CC(Br)=NO1)Nc1cc(C(F)(F)F)ccc1Cl (centres unmarked) = 0.95
O=C(NCC1CC(Br)=NO1)Nc1ccc(F)cc1 (centres unmarked) = 1.0
O=C(N[C@H](Cc1ccccc1)C(=O)NCC1CC(Br)=NO1)OCc1ccccc1 (some centres unmarked) = 0.29
COC(=O)[C@H](CC(=O)NCC1CC(Br)=NO1)NC(=O)OCc1ccccc1 (some centres unmarked) = 0.43
Cc1ccc(C)c(NC(=O)NCC2CC(Br)=NO2)c1 (centres unmarked) = 0.97

I'm hoping you can list kinh for every compound here, please.
1. O=C(N[C@@H](Cc1ccccc1)C(=O)OCC1CC(Br)=NO1)OCc1ccccc1 (some centres unmarked)
2. O=C(C[C@H](NC(=O)OCc1ccccc1)C(=O)NCC1CC(Br)=NO1)NCc1ccccc1 (some centres unmarked)
3. O=C(NCC1CC(Br)=NO1)Nc1ccccc1 (centres unmarked)

[out]
1: 0.32; 2: 0.54; 3: 0.89
